This collection of values is drawn from patent US9862679B2.

- study-target: dopamine transporter (DAT) (Rattus norvegicus (Rat))
- Sequence (P23977 whole entry): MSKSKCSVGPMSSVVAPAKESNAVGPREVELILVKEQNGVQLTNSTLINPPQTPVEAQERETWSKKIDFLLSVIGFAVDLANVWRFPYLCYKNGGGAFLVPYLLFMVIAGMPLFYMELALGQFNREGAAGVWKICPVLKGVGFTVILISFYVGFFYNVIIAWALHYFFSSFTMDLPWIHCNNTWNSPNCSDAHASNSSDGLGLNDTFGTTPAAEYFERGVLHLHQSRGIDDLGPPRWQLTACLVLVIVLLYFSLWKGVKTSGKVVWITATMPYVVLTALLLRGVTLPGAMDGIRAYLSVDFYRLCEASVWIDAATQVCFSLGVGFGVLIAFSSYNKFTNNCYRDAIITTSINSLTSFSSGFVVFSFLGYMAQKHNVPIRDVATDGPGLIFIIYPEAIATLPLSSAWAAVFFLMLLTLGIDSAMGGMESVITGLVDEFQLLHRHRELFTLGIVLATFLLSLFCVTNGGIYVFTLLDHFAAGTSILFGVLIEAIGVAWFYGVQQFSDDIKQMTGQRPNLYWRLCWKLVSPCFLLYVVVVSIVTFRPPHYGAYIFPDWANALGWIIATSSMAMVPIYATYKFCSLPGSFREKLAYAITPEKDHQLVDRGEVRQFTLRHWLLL
- protocol-summary: Dopamine Transporter Binding Assay ([3H]WIN 35428, rat striatal membranes)
- condition-label: rat brain membranes; Table 5 piperazinyl derivatives; read-out: DAT Ki ± SEM
readout: Ki (nM)
Just the number please, in nM, no unit attached.

Field request: Ki | item: O=C(CSC(c1ccccc1)c1ccccc1)N1CCN(CCCc2ccccc2)CC1 [Compound 11a] 47.2

Field request: Ki | item: [O-][S+](CCN1CCN(CC(O)Cc2ccccc2)CC1)C(c1ccccc1)c1ccccc1 (racemic) [Compound 10g] 3.43

Field request: Ki | item: O=C(C[S+]([O-])C(c1ccccc1)c1ccccc1)N1CCN(CCCc2ccccc2)CC1 (centres unmarked) [Compound 12a] 33

Field request: Ki | item: [O-][S+](CCN1CCN(CC(O)Cc2ccccc2)CC1)C(c1ccc(F)cc1)c1ccc(F)cc1 (racemic) [Compound 10j] 2.53

Field request: Ki | item: CC(O)CN1CCN(CCSC(c2ccccc2)c2ccccc2)CC1 (racemic) 49.6

Field request: Ki | item: OC(Cc1ccccc1)CN1CCN(CCSC(c2ccccc2)c2ccccc2)CC1 (racemic) 2.54

Field request: Ki | item: c1ccc(CCCN2CCN(CCSC(c3ccccc3)c3ccccc3)CC2)cc1 3.58

Field request: Ki | item: Fc1ccc(C(SCCN2CCN(CCCc3ccccc3)CC2)c2ccc(F)cc2)cc1 4.5
